TARGET_SYSTEM: GST-Yap8-7aa A23T;L26N;S29A;N31R;K35E;L37E;E39R (Saccharomyces cerevisiae)
TEST: fluorescence anisotropy
CONDITION_SET: FA: 10 mM Tris-HCl pH 8, 50 mM NaCl, 0.5% NP-40, 1 mM DTT, 5% glycerol, 1 nM DNA, 25C (half volume protein elution buffer). Biotin EMSA: LightShift 1x buffer …
READOUT_TYPE: Kd

Record for CTTTTTGTTTGATTAATAATCAACTTTAGCG (double strand) [ACR3-WT (FAM)] under target or system GST-Yap8-7aa A23T;L26N;S29A;N31R;K35E;L37E;E39R (Saccharomyces cerevisiae): Kd reported as 9.3 nM
